# reported kon; entries follow
- Target Desc: T1, recombinant human CD70 (AviTag, polyhistidine tag and chicken tenascin trimerization domain fused to the … (chicken; human, UniProt P10039 110-139, limits assumed)
- T1 construct: domain: trimerization domain; Expressed in Expi293, purified by IMAC and SEC; Copies 3 is inferred from the trimerization domain; not shown: AviTag; polyhistidine tag
- T1 sequence: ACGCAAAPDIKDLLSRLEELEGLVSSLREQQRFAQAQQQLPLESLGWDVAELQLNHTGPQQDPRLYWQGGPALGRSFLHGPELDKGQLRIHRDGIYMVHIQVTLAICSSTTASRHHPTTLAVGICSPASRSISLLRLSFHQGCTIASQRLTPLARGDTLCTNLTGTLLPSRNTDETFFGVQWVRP
- Run Description: SPR (Biacore 8K, 37 C): CD70 captured via anti-AviTag antibody on C1 chip, scFv-Fc as analyte; 1:1 Langmuir fit

- Binder: "11E1 anti-CD70 scFv-Fc fusion (Fc fusion, scFv-Fc expressed in Expi293; not shown: part of the hinge and Fc from a modified human IgG2) QVQLQESGPGLVKPLQTLSLTCTVSGGSISSDGYYWSWIRQNPGKGLEWIGYMYYSGSTYYNPSLKSRVTISVDTSKNQFSLKLRSVTAADTAVYYCTRDFGWYFDLWGRGTLVTVSSGGGGSGGGGSGGGGSGGGGSDIQMTQSPSSLSASVGDSITITCRASQDIDNYLAWYQQKTGKVPKVLIYAASALQSGVPSRFSGSGSGTDFTLTISSLQPEDVATYYCQNYNSGPRTFGQGTKVEIK"
  kon, M⁻¹ s⁻¹: 578000
- Binder: "8C8 anti-CD70 scFv-Fc fusion (Fc fusion, scFv-Fc expressed in Expi293; not shown: part of the hinge and Fc from a modified human IgG2) EVQLVESGGGLVKPGGSLRLSCVASGFTFSSYSMNWVRQFPGKGLEWVSSISTSSNYIHYADSLQGRFTISRDNAKNSLYLQMSSLRVEDTAVYYCVRDKGTTLTNWYFDLWGRGTLVTVSSGGGGSGGGGSGGGGSGGGGSDMQMTQSPSSLSASVGDRVTLTCRASQGISNYLAWFQLKPGKVPKLLIYAASTLQSGVPSRFSGSGSGTDFALTISSLQPEDVATYYCQKYNSAPLTFGGGTKVEIK"
  kon, M⁻¹ s⁻¹: 103000
